These data points were gathered from ChEMBL document CHEMBL4689842.

# System: Fibroblast
# Assay notes: Multiplex assay against human fibroblast
# Format: toxicity, cell-based
# Test conditions: 12 h, 1 µM, compound concentration 1 uM, replicate 1
Consider the following compounds and their measured Total Cell Count readings.
Respond with the number and no other words.

// returns Total Cell Count for CCOc1cc(C(=O)N2CCC(N3CCN(C)CC3)CC2)ccc1Nc1ncc2c(n1)N(C1CCCC1)c1ccccc1C(=O)N2C with Fibroblast; value = 200

---
// returns Total Cell Count for COC(=N)c1nc2ccc3ncnc(Nc4ccc(OC)cc4F)c3c2s1 with Fibroblast; value = 119

// returns Total Cell Count for O=C(Cc1ccc(-c2ccc(OCCN3CCOCC3)cc2)cn1)NCc1ccccc1 with Fibroblast; value = 80

// returns Total Cell Count for C=CCn1c(=O)c2cnc(Nc3ccc(N4CCN(C)CC4)cc3)nc2n1-c1cccc(C(C)(C)O)n1 with Fibroblast; value = 178

// returns Total Cell Count for CN1C2CCC1CC(OC(c1ccc(F)cc1)c1ccc(F)cc1)C2.Cl (stereo unspecified) with Fibroblast; value = 106

// returns Total Cell Count for CCc1cccc(CC)c1NC(=O)c1nn(C)c2c1CCc1cnc(Nc3ccc(N4CCN(C)CC4)cc3OC)nc1-2 with Fibroblast; value = 142
